Documented ELISA ratio across a set of binders
Target: Feline_OSMR_hlgG1_Fc (feline)
Sequence (chain, as listed by the source limits assumed, form in doubt): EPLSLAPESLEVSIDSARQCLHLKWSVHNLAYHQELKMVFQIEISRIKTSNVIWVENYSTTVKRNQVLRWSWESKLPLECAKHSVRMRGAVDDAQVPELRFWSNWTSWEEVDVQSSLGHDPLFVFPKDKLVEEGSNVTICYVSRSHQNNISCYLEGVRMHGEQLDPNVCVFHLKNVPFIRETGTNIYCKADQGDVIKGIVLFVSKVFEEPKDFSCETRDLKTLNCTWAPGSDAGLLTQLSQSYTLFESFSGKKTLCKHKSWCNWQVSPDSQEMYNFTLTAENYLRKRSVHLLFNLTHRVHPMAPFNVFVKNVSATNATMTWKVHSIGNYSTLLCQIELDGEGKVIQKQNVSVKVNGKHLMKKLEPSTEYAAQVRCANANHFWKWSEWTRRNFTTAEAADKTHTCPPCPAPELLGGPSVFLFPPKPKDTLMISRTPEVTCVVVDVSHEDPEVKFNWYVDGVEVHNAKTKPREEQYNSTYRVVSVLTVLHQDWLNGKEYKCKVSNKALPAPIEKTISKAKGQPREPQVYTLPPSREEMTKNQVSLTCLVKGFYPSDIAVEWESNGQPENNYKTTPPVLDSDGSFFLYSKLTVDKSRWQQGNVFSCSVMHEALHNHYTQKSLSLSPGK
Experiment: indirect ELISA, fOSMR coated; OD ratio to antibody expression control
quantity_name: ELISA ratio (OD ratio)

binder	readout_value
Mu_02D09_VH (SEQ ID NO: 31)_G33A (antibody, V domains shown) VH: EVQLVESGGGLVKPGGSLTLSCAASGFTFSDYAMHWLRQAPEKGLEWVAYISSGSRAVFFADTVKGRFTISRDNAKNTLFLQMTSLRSDDTAMYYCARDRYDGRGFAYWGQGTLVTVSA VL: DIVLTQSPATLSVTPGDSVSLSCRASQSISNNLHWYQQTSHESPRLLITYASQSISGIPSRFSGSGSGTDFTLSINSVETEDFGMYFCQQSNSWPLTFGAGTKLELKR	0.158
Mu_02D09_VH (SEQ ID NO: 31)_H35A (antibody, V domains shown) VH: EVQLVESGGGLVKPGGSLTLSCAASGFTFSDYGMAWLRQAPEKGLEWVAYISSGSRAVFFADTVKGRFTISRDNAKNTLFLQMTSLRSDDTAMYYCARDRYDGRGFAYWGQGTLVTVSA VL: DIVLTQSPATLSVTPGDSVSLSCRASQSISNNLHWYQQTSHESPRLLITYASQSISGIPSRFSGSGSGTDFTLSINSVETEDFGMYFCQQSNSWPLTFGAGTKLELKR	0.03
